target: ALK (Homo sapiens); construct: purchased Millipore Corporation; assay: Panel of 270 human kinases (Millipore); format: biochemical
Sequence (Q9UM73 19-1620): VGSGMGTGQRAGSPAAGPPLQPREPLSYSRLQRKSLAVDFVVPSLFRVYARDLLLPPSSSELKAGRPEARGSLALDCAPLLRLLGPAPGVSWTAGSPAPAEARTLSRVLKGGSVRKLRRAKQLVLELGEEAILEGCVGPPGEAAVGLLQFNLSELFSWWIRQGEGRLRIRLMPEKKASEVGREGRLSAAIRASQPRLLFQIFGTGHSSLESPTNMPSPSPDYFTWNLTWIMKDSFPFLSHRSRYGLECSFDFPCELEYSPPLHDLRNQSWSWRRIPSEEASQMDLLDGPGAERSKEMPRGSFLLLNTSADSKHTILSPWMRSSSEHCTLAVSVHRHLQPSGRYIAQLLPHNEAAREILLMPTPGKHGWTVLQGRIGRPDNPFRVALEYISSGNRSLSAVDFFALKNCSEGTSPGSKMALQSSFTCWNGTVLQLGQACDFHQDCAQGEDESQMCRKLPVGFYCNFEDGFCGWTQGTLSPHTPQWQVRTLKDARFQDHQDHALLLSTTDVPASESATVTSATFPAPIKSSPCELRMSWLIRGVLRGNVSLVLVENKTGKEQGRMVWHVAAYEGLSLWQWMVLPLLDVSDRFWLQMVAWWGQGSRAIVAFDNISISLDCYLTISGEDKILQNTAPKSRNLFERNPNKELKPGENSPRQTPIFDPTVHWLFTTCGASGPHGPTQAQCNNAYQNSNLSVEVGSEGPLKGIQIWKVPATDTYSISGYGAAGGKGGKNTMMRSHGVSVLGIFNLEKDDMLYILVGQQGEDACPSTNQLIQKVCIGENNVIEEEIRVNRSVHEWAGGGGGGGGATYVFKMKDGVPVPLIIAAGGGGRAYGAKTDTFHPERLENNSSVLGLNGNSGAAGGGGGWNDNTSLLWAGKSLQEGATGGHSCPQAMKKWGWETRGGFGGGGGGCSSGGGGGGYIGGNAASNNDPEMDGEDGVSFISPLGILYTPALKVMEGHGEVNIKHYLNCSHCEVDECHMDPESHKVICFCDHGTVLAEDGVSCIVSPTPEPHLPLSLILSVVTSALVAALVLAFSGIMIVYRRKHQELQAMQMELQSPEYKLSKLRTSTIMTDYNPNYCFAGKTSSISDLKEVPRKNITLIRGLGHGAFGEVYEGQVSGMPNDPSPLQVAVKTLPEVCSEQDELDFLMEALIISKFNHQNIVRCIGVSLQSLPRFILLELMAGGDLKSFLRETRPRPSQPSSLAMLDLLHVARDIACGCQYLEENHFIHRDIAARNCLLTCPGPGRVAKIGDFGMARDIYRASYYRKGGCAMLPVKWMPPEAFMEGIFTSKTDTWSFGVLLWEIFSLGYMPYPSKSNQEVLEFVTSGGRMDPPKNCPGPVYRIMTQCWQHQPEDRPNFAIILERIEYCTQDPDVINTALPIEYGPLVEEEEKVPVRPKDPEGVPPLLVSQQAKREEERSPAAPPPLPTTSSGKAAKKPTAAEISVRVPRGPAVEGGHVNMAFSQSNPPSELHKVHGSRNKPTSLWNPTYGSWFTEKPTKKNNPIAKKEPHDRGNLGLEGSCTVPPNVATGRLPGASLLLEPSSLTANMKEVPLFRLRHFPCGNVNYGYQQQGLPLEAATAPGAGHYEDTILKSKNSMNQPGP
Each entry below carries its recorded inhibition at 1 µM.
Write the answer as a number in %, unit excluded.

- compound: "CC(C)[C@H](NC(=O)c1ccc2[nH]nc(-c3ccc(OC4CC5CCC(C4)N5C4COC4)cc3)c2c1)c1ccccc1Cl (stereo partly drawn) [Example A335]"
  system-under-test: "ALK (Homo sapiens)"
  inhibition at 1 µM / %: 7
- compound: "O=C(N[C@H](c1ccccn1)C1CCCC1)c1ccc2[nH]nc(-c3ccc(N4CCN(C5COC5)CC4)cc3)c2c1 [Example A410]"
  system-under-test: "ALK (Homo sapiens)"
  inhibition at 1 µM / %: -3
- compound: "O=C(N[C@@H](c1ccccn1)C1CC1)c1ccc2[nH]nc(-c3ccc(N4C5CCC4CC(O)C5)cc3)c2c1 (stereo partly drawn) [Example A363]"
  system-under-test: "ALK (Homo sapiens)"
  inhibition at 1 µM / %: 6

Q: Lab request: please report inhibition at 1 µM under test system ALK (Homo sapiens) for CC(C)C[C@@H](NC(=O)c1ccc2[nH]nc(-c3ccc(N4CCN(C5COC5)CC4)cc3)c2c1)c1ccccc1Cl [Example A300]
Result: 0

Q: Item: CC(C)[C@H](NC(=O)c1ccc2[nH]nc(-c3ccc(N4CCN(C5COC5)CC4)cc3)c2c1)c1ccccc1Cl [Example A405]
Result: 2

Q: Item: CC1=CC2(CCN(C)CC2)Oc2ccc(-c3n[nH]c4ccc(C(=O)N[C@H](c5ccccn5)C5CCCC5)cc34)cc21 [Example A261]
Result: 86
